Measured Collagen I in cell of individual entries
- System: collagen I
- Method: Collagen I expression and secretion in human HDF cells (western blot)
- Type: cell-based
- Study Conditions: 0.1 μM, relative to 0 = 1.00

CC(=O)O[C@H]1[C@H](O[C@H]2CC[C@]34C[C@]35CC[C@]3(C)[C@@H]([C@@]6(C)CC[C@@H](C(C)(C)O)O6)[C@@H](O)C[C@@]3(C)[C@@H]5C[C@H](O[C@@H]3O[C@H](CO)[C@@H](O)[C@H](O)[C@H]3O)[C@H]4C2(C)C)OC[C@@H](OC(C)=O)[C@@H]1O [isoAS1, isoastragaloside I]: 1.11
CC(C)(O)C1CC[C@](C)(C2[C@@H](O)C[C@@]3(C)C4C[C@H](OC5OC(CO)C(O)C(O)C5O)C5C(C)(C)[C@@H](O)CCC56CC46CC[C@]23C)O1 (some centres unmarked): 1.85
CC(C)(O)[C@@H]1CC[C@](C)([C@H]2[C@@H](O)C[C@@]3(C)[C@@H]4C[C@H](O[C@@H]5O[C@H](CO)[C@@H](O)[C@H](O)[C@H]5O)[C@H]5C(C)(C)[C@@H](O[C@@H]6OC[C@@H](O)[C@H](O)[C@H]6O[C@@H]6O[C@H](CO)[C@@H](O)[C@H](O)[C@H]6O)CC[C@@]56C[C@@]46CC[C@]23C)O1 [AS6, astragaloside VI]: 1.41
CC(C)(O)[C@@H]1CC[C@](C)([C@H]2[C@@H](O)C[C@@]3(C)[C@@H]4C[C@H](O[C@@H]5O[C@H](CO)[C@@H](O)[C@H](O)[C@H]5O)[C@H]5C(C)(C)[C@@H](O[C@@H]6OC[C@@H](O)[C@H](O)[C@H]6O)CC[C@@]56C[C@@]46CC[C@]23C)O1 [AS4, astragaloside IV]: 1.33

Let us examine a further case.
Q: Form field: reported Collagen I in cell of CC(=O)O[C@H]1[C@H](O[C@H]2CC[C@]34C[C@]35CC[C@]3(C)[C@@H]([C@@]6(C)CC[C@@H](C(C)(C)O)O6)[C@@H](O)C[C@@]3(C)[C@@H]5C[C@H](O[C@@H]3O[C@H](CO)[C@@H](O)[C@H](O)[C@H]3O)[C@H]4C2(C)C)OC[C@@H](O)[C@@H]1O [AS2, astragaloside II]
Result: 0.73

====

Listing of recorded Collagen I in cell by entry.
- Test system: collagen I
- Method: Collagen I expression and secretion in human HDF cells (western blot)
- Type: cell-based
- Study Conditions: 1 μM, relative to 0 = 1.00
Respond with the number and no other words.

Worked examples, 4 molecules total:
CC(=O)O[C@H]1[C@H](O[C@H]2CC[C@]34C[C@]35CC[C@]3(C)[C@@H]([C@@]6(C)CC[C@@H](C(C)(C)O)O6)[C@@H](O)C[C@@]3(C)[C@@H]5C[C@H](O[C@@H]3O[C@H](CO)[C@@H](O)[C@H](O)[C@H]3O)[C@H]4C2(C)C)OC[C@@H](OC(C)=O)[C@@H]1O [isoAS1, isoastragaloside I]: 1.27
CC(C)(O)[C@@H]1CC[C@](C)([C@H]2[C@@H](O)C[C@@]3(C)[C@@H]4C[C@H](O[C@@H]5O[C@H](CO)[C@@H](O)[C@H](O)[C@H]5O)[C@H]5C(C)(C)[C@@H](O[C@@H]6OC[C@@H](O)[C@H](O)[C@H]6O)CC[C@@]56C[C@@]46CC[C@]23C)O1 [AS4, astragaloside IV]: 1.07
CC(=O)O[C@H]1[C@H](O[C@H]2CC[C@]34C[C@]35CC[C@]3(C)[C@@H]([C@@]6(C)CC[C@@H](C(C)(C)O)O6)[C@@H](O)C[C@@]3(C)[C@@H]5C[C@H](O[C@@H]3O[C@H](CO)[C@@H](O)[C@H](O)[C@H]3O)[C@H]4C2(C)C)OC[C@@H](O)[C@@H]1O [AS2, astragaloside II]: 1.26
CC(C)(O)C1CC[C@](C)(C2[C@@H](O)C[C@@]3(C)C4C[C@H](OC5OC(CO)C(O)C(O)C5O)C5C(C)(C)[C@@H](O)CCC56CC46CC[C@]23C)O1 (some centres unmarked): 1.17

# evaluate next
Q: Value wanted: Collagen I in cell (collagen I) of entry CC(C)(O)[C@@H]1CC[C@](C)([C@H]2[C@@H](O)C[C@@]3(C)[C@@H]4C[C@H](O[C@@H]5O[C@H](CO)[C@@H](O)[C@H](O)[C@H]5O)[C@H]5C(C)(C)[C@@H](O[C@@H]6OC[C@@H](O)[C@H](O)[C@H]6O[C@@H]6O[C@H](CO)[C@@H](O)[C@H](O)[C@H]6O)CC[C@@]56C[C@@]46CC[C@]23C)O1 [AS6, astragaloside VI]
Result: 1.30

Values were extracted from patent US20080057010A1.
